measurementTarget: Toxoplasma gondii dihydrofolate reductase (Toxoplasma gondii)
Sequence (Q07422 whole entry): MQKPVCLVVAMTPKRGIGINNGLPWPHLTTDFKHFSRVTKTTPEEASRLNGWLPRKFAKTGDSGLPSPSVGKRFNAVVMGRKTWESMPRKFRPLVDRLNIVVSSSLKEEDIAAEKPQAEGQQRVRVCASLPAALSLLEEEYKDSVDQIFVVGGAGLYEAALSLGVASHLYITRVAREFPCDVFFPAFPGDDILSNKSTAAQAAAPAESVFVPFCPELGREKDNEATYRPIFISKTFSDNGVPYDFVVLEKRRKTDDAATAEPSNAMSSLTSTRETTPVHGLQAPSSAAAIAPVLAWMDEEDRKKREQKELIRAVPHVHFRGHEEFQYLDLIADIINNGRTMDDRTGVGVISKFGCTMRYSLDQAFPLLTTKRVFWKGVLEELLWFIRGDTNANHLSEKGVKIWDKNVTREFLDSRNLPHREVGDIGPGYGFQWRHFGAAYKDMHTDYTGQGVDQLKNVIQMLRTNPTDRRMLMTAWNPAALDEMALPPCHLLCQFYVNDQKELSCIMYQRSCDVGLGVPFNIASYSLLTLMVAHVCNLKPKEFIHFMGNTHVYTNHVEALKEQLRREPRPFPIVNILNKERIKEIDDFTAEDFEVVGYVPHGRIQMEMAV
measurementDescription: biochemical
settings: IC50 (DHFR inhibition), T. gondii DHFR, mean value restated in text
measuredEndpoint: IC50 (nM)
Please state the figure in nM; there is no need to write the unit.

Record summary for Nc1nc(N)c2nc(CN3c4ccccc4C=Cc4ccccc43)cnc2n1 [Example 7] : reported IC50 = 45

* * *

measurementTarget: Toxoplasma gondii dihydrofolate reductase (Toxoplasma gondii)
measurementDescription: biochemical
settings: DHFR inhibition (IC50 μM) T.gondii, expt 1 (replicate assays on different days)
Each record here notes measured IC50.
Please state the figure in µM; there is no need to write the unit.

INSERT INTO measurements (chemicalstring, observedmeasurement) VALUES
  ('Nc1nc(N)c2nc(CN3c4ccccc4CCc4ccccc43)cnc2n1', 0.89);

Record summary for Nc1nc(N)c2nc(CN3c4ccccc4C=Cc4ccccc43)cnc2n1 : reported IC50 = 0.01
